pIC50 overview
- measured_target: LcrF (VirF) (Yersinia pestis, UniProt P28808)
- Sequence (P28808 whole entry, looked up): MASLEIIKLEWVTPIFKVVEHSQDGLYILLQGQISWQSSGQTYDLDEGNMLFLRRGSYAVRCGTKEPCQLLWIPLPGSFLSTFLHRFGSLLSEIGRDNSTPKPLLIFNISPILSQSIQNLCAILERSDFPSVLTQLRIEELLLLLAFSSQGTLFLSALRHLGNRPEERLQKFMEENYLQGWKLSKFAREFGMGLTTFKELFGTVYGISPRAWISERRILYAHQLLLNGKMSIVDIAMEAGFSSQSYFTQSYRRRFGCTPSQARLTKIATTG
- assay_text: biochemical
pIC50: −log10 of the molar value.

Below, 3 molecules whose answers are already recorded.
| molecule | assay_readout | reported_measurement |
| --- | --- | --- |
| CS(=O)(=O)c1ccc2nc(-c3ccc(NC(=O)/C=C/c4ccc(F)cc4)cc3)n(O)c2c1 [Compound AD] | pIC50 | < 4.30 |
| CC(=O)c1ccc2nc(-c3ccc(NC(=O)/C=C/c4ccc(F)cc4)cc3)n(O)c2c1 [Compound AB] | pIC50 | 4.30 to 4.60 |
| O=C(O)Cc1cc([N+](=O)[O-])cc2c1nc(-c1ccc(NC(=O)c3ccc(N4CCOCC4)nc3)cc1)n2O [Q] | pIC50 | 4.30 to 4.60 |

Param readout = pIC50; param system = LcrF (VirF) (Yersinia pestis, UniProt P28808); param query = Cc1nc(C(F)(F)F)ccc1C(=O)Nc1ccc(-c2nc3ccc([N+](=O)[O-])cc3n2O)cc1 [Compound W] ; response: value < 4.30
